Assign pIC50 to each entry below.
- ASSAYED_SYSTEM: T1, human MIC-1 receptor (hGFRAL, GDNF family receptor alpha like), full length (human, UniProt Q6UXV0 19-394)
- T1 construct: whole, on cells
- T1 sequence (looked up): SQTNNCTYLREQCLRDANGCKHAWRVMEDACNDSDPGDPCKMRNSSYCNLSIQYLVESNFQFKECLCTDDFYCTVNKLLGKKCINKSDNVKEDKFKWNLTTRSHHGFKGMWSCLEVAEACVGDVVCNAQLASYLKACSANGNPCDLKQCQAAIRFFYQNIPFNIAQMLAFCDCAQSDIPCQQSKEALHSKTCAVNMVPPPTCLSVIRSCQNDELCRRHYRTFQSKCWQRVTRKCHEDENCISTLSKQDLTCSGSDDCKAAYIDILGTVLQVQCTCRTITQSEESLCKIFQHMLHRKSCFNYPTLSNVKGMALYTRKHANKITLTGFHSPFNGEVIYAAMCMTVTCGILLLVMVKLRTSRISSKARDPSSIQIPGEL
- METHOD_NOTES: SPA: displacement of 50 pM human [125I]-MIC-1 from BHK21-hGFRAL-IRES-hRET cell membranes
Please note pIC50 is a logarithmic value: minus log10 of concentration in mol/L. Answer with that number alone.

Exercise: GET /values?readout=pIC50&item= SEPATSGSETPGTSESATPESGPGTSTEPSEG-MIC-1, del-N3, M57L, M86L, K69R, K107R, K91R (ligand, homodimer; no protractor) SEPATSGSETPGTSESATPESGPGTSTEPSEGARGDHCPLGPGRCCRLHTVRASLEDLGWADWVLSPREVQVTMCIGACPSQFRAANLHAQIKTSLHRLRPDTVPAPCCVPASYNPLVLIQRTDTGVSLQTYDDLLARDCHCI
Solution: 6.94

Exercise: Look up pIC50 for this binder: Compound 18 (ligand, Cys-29 (residue 4 of SEQ ID NO: 288): S{Beta}-[2-[[(5S)-5-carboxy-5-[[2-[2-[2-[[2-[2-[2-[4-[17-(1H-tetrazol-5-yl)heptadecanoylsulfamoyl]butanoylamino]ethoxy]ethoxy]acetyl]amino]ethoxy]ethoxy]acetyl]amino]pentyl]amino]-2-oxoethyl]Cys (protractor of Example 10.7), homodimer, two protractors per dimer) SEPCTSGSETPGTSESATPESGPGTSTEPSEGARGDHCPLGPGRCCRLHTVRASLEDLGWADWVLSPREVQVTMCIGACPSQFRAANMHAQIKTSLHRLKPDTVPAPCCVPASYNPMVLIQKTDTGVSLQTYDDLLAKDCHCI
Solution: 8.89

Exercise: Returns the measured pIC50 for the input binder. Input: Compound 16 (ligand, alpha-amino group of the N-terminal Ser-32 (residue 1 of SEQ ID NO: 312): N-[4-[[[2-[2-[2-[[2-[2-[2-[[(4S)-4-carboxy-4-(17-carboxyheptadecanoylamino)butanoyl]amino]ethoxy]ethoxy]acetyl]amino]ethoxy]ethoxy]acetyl]amino]methyl]phenyl]methyl (protractor of Example 10.1), homodimer, two protractors per dimer; also called dialkylated) SEPATSGSETPGTSESATPESGPGTSTEPSEGARGDHCPLGPGRCCRLHTVRASLEDLGWADWVLSPREVQVTMCIGACPSQFRAANLHAQIKTSLHRLRPDTVPAPCCVPASYNPLVLIQRTDTGVSLQTYDDLLARDCHCI
Solution: 7.96

Exercise: Field request: pIC50 | item: Compound 10 (ligand, alpha-amino group of the N-terminal Ser-32 (residue 1 of SEQ ID NO: 164): N-[4-[[[2-[2-[2-[[2-[2-[2-[[(4S)-4-carboxy-4-(17-carboxyheptadecanoylamino)butanoyl]amino]ethoxy]ethoxy]acetyl]amino]ethoxy]ethoxy]acetyl]amino]methyl]phenyl]methyl (protractor of Example 10.1), homodimer with one protractor on each of the two N-terminal extensions; also called Formula A (C18)) SEPATSGSETPGTSESATPESGPGTSTEPSEGARGDHCPLGPGRCCRLHTVRASLEDLGWADWVLSPREVQVTMCIGACPSQFRAANLHAQIKTSLHRLKPDTVPAPCCVPASYNPLVLIQKTDTGVSLQTYDDLLAKDCHCI
Solution: 7.70

Exercise: Fill blank: measured pIC50 of the binder SEPATSGCETPGTSESATPESGPGTSTEPSEG-MIC-1, des-N3, M57L, M86L (Cys mutation S(-25)C) (ligand, homodimer; no protractor) SEPATSGCETPGTSESATPESGPGTSTEPSEGARGDHCPLGPGRCCRLHTVRASLEDLGWADWVLSPREVQVTMCIGACPSQFRAANLHAQIKTSLHRLKPDTVPAPCCVPASYNPLVLIQKTDTGVSLQTYDDLLAKDCHCI is ____.
Solution: 7.37

Exercise: If you can, please state the reported pIC50 value of Compound 11 (ligand, Cys-29 (residue 4 of SEQ ID NO: 290): S{Beta}-[2-[2-[[2-[2-[2-[[2-[2-[2-[[(4S)-4-carboxy-4-(17-carboxyheptadecanoylamino)butanoyl]amino]ethoxy]ethoxy]acetyl]amino]ethoxy]ethoxy]acetyl]amino]ethylamino]-2-oxoethyl]Cys (protractor of Example 10.4), homodimer, two protractors per dimer) SEPCTSGSETPGTSESATPESGPGTSTEPSEGARGDHCPLGPGRCCRLHTVRASLEDLGWADWVLSPREVQVTMCIGACPSQFRAANLHAQIKTSLHRLKPDTVPAPCCVPASYNPLVLIQKTDTGVSLQTYDDLLAKDCHCI .
Solution: 7.54

Exercise: May I ask what pIC50 has been recorded for SEPATCGSETPGTSESATPESGPGTSTEPSEG-MIC-1, des-N3 (Cys mutation S(-27)C) (ligand, homodimer; no protractor) SEPATCGSETPGTSESATPESGPGTSTEPSEGARGDHCPLGPGRCCRLHTVRASLEDLGWADWVLSPREVQVTMCIGACPSQFRAANMHAQIKTSLHRLKPDTVPAPCCVPASYNPMVLIQKTDTGVSLQTYDDLLAKDCHCI ?
Solution: 8.00

Exercise: Looking for the measured pIC50 of Compound 02 (ligand, Cys-27 (residue 6 of SEQ ID NO: 291): S{Beta}-[2-[2-[[2-[2-[2-[[2-[2-[2-[[(4S)-4-carboxy-4-(17-carboxyheptadecanoylamino)butanoyl]amino]ethoxy]ethoxy]acetyl]amino]ethoxy]ethoxy]acetyl]amino]ethylamino]-2-oxoethyl]Cys, homodimer, two protractors per dimer) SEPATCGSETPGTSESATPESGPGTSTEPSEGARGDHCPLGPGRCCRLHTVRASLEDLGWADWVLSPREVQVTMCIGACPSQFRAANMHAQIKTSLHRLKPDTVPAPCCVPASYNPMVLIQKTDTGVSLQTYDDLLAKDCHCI , can you help?
Solution: 8.31
